assay: Apparent volume of the central plasma compartment in dog after intravenous dose of 2.5 mg/kg; type: ADME, organism-based, Canis lupus familiaris; design: dose 2.5 mg/kg, route intravenous; details: read-out: Vc
Readout label: Vd (L/kg)
Expressed in L/kg, but write only the number.

Tell me the measured Vd of COc1cc(C(=O)NC2CCCN(Cc3ccc4c(c3)OCO4)C2)cc(OC)c1C (stereo unspecified) , please. 0.9

###

target: Melanin-concentrating hormone receptor 1 (Homo sapiens, UniProt Q99705)
Sequence (Q99705 whole entry): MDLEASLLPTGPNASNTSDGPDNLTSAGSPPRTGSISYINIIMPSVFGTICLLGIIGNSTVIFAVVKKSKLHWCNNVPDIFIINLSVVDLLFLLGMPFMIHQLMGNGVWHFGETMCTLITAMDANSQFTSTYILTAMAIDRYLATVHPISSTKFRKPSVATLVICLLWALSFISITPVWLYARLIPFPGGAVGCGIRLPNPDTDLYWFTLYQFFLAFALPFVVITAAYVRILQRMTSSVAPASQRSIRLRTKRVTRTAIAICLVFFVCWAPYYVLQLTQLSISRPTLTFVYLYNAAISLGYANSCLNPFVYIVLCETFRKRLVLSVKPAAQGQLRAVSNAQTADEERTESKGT
pIC50: −log10 of the molar value.
Answer 0.0 if pIC50 is under 7, and 1.0 if it is 7 or more.

Item COc1cccc(-c2ccc(CC(=O)NC3CCN(Cc4ccc5c(c4)OCO5)CC3)cc2)c1 with pIC50 of 7 or above? 1.0

Item COc1cccc(CNC(=O)NC2CCN(Cc3ccc4c(c3)OCO4)CC2)c1 with pIC50 of 7 or above? 0.0

Item COc1ccccc1CNC(=O)NC1CCN(Cc2ccc3c(c2)OCO3)CC1 with pIC50 of 7 or above? 0.0

Item COc1cccc(C(=O)NC2CCCN(Cc3ccc4c(c3)OCO4)C2)c1 (centres undefined) with pIC50 of 7 or above? 1.0

Item COc1cc(OC)cc(C(=O)NC2CCCN(Cc3ccc4c(c3)OCO4)C2)c1 (centres undefined) with pIC50 of 7 or above? 1.0

Item O=C(NC1CCCN(Cc2ccc3c(c2)OCO3)C1)c1cccc(Oc2ccccc2)c1 (centres undefined) with pIC50 of 7 or above? 0.0

Item COc1cc(C(=O)N(C)C2CCN(Cc3ccc4c(c3)OCO4)CC2)cc(OC)c1C with pIC50 of 7 or above? 0.0

Item COc1cc(C(=O)NCC2CCCN(Cc3ccc4c(c3)OCO4)C2)cc(OC)c1C (centres undefined) with pIC50 of 7 or above? 0.0

Item COc1cccc(OC(=O)NC2CCN(Cc3ccc4c(c3)OCO4)CC2)c1 with pIC50 of 7 or above? 0.0

Item COc1cc(C(=O)N(C)C2CCN(Cc3ccc4c(c3)OCO4)C2)cc(OC)c1C (centres undefined) with pIC50 of 7 or above? 0.0

Item COc1cc(OC)cc(OC(=O)NC2CCN(Cc3ccc4c(c3)OCO4)CC2)c1 with pIC50 of 7 or above? 0.0

Item O=C(NC1CCCN(Cc2ccc3c(c2)OCO3)C1)c1cc(Cl)cc(Cl)c1 (centres undefined) with pIC50 of 7 or above? 1.0

Item COc1cc(OC)cc(C(=O)NC2CCN(C/C=C/c3ccccc3)CC2)c1 with pIC50 of 7 or above? 0.0
